// compounds with pKi on Receptor-interacting serine/threonine-protein kinase 1 (Homo sapiens), multi-source literature
Scale for pKi: -log10 of concentration given in mol/L; no unit attached.

Query: pKi; subject: O=S(=O)(c1nc2n(n1)[C@H](c1ccccc1)C[C@@H]2F)C1CCOC1 (stereo partly shown)
7.37

***
# lookup: pKi of [O-][S@+](CF)c1nc2n(n1)[C@H](c1cc(F)cc(F)c1)C[C@@H]2F (single isomer, unassigned)
6.74

Record: N#CCCc1nc2n(n1)[C@H](c1ccccc1)C[C@@H]2F (single isomer, unassigned)
7.96

Same again, this time with O=S(=O)(c1nc2n(n1)[C@H](c1ccccc1)C[C@@H]2F)[C@H]1CCC1(F)F
8.22

What would you report for O=S(=O)(CCOC(F)F)c1nc2n(n1)[C@H](c1ccccc1)C[C@@H]2F (single isomer, unassigned) ?
7.17

Would you kindly repeat that for O=C(c1nc2n(n1)[C@@H](c1ccccc1)C[C@H]2F)N1CCn2nccc2C1 (stereo in doubt) ?
7.82

Again, but for O=C(c1nc2n(n1)C(c1ccccc1F)CC2)N1CCC1 (racemic)
6.29

Next record, please: O=C(c1nc2n(n1)C(c1ccccc1)CC2)N1CCCC1 (racemic)
5.19

Lookup CCC(F)(F)n1ncc2cnc(C(=O)N3CC(F)(F)C3)cc21
5.17

Field entry: O=C(c1nc2n(n1)[C@H](c1cncc(F)c1)C[C@@H]2F)C1CC1 (single isomer, unassigned)
8.05

###

Recorded Ki for compounds tested on Receptor-interacting serine/threonine-protein kinase 1 (Homo sapiens), drawn from a number of studies.
Provide the reading as a plain figure in nM.

Using the record for CC(=O)c1cnn(-c2nc3n(n2)[C@H](c2ccccc2)C[C@@H]3F)c1 (racemic) , report its Ki.
130

Also CC(C)(C)C(F)(F)c1nc2n(n1)C(c1ccccc1)CC2F (racemic) , if possible.
68

Proceed to F[C@H]1C[C@@H](c2ccccc2)n2nc(-n3ncc4ccncc43)nc21 (racemic)
160

Same again, this time with CN(C)C(=O)c1nc2n(n1)[C@@H](c1ccccc1)C[C@H]2F (racemic)
56

// query: N#CC1CC1S(=O)(=O)c1nc2n(n1)[C@H](c1ccccc1)C[C@@H]2F (stereo in doubt)
18

###

Record set: pKi | Receptor-interacting serine/threonine-protein kinase 1 (Homo sapiens) | literature, multiple sources.
The quantity pKi is defined as the negative base-10 logarithm of the molar concentration.

Look up pKi: F[C@H]1C[C@@H](c2ccccc2)n2nc(C(F)(F)C34CC(C3)C4)nc21
8.22

Also [O-][S@+](CC(F)(F)F)c1nc2n(n1)[C@H](c1ccccc1)C[C@@H]2F (single isomer, unassigned) ?
7.72

Param item: O=S(=O)(c1nc2n(n1)[C@H](c1cc(F)cc(F)c1F)C[C@@H]2F)C1CC1 (single isomer, unassigned)
8.22

Input OC(c1nc2n(n1)[C@H](c1ccccc1)C[C@@H]2F)[C@H]1C[C@@H]1F (some centres unmarked)
6.96

And CCC(F)c1nc2n(n1)C(c1ccccc1)CC2F (centres unmarked) ?
7.29

Try this molecule next: O=S(=O)(c1nc2n(n1)[C@H](c1c(F)ccc(F)c1F)C[C@@H]2F)C1CC1 (single isomer, unassigned)
8.00

Next, consider the following molecule.
// pKi lookup, key: O=C(c1nc2n(n1)[C@H](c1ccccc1)C[C@@H]2F)N1CC(C(F)(F)F)C1 (racemic)
5.80
